test system: NCI-H460; assay: Cytotoxicity against human NCI-H460 cells assessed as reduction in cell viability upto 30 uM incubated for 48 hrs by MTT assay; format: cell-based; settings: nci-h460, 48 h
property-name: Activity

CC(C)[C@H]1CC[C@@](O)(COC(=O)/C(=C/[C@@H]2[C@@H](C(C)C)CC[C@@]3(O)COC(=O)[C@@H]23)CO)[C@@H](C(=O)O)[C@@H]1/C=C(\CO)C(=O)O[C@@]12CC[C@H](C(C)C)[C@@H](/C=C(\CO)C(=O)O)[C@@H]1C(=O)OC2 Non-Toxic
CC(C)[C@H]1CC[C@@](O)(COC(=O)C2=C[C@H]3[C@@H](OC2)[C@H](CO)CC[C@@H]3C(C)C)[C@H]2C(=O)OCC(C(=O)O)=C[C@H]12 Non-Toxic
CC(C)[C@H]1CC[C@@]2(OC(=O)/C(=C/[C@H]3C=C(CO)CC[C@@H]3C(C)C)CO)COC(=O)[C@H]2[C@@H]1/C=C(\CO)C(=O)O Non-Toxic

====

test system: NCI-H460; test: Cytotoxicity against human NCI-H460 cells assessed as reduction in cell viability upto 30 uM incubated for 48 hrs by MTT assay; assay type: cell-based; conditions: nci-h460, 48 h
property-name: Activity

CC(C)[C@H]1CC[C@@](O)(COC(=O)/C(=C/[C@H]2C3=C(CC[C@@H]2C(C)C)COC3=O)CO)[C@H]2C(=O)OCC(C(=O)O)=C[C@H]12 Non-Toxic
CC(C)[C@H]1CC[C@@](O)(COC(=O)C2=C[C@@H]3[C@@H](C(C)C)CC[C@@](O)(COC(=O)/C(=C/[C@H]4C=C(CO)CC[C@@H]4C(C)C)CO)[C@H]3C(=O)OC2)[C@H]2C(=O)OCC(C(=O)O)=C[C@H]12 Non-Toxic
CC(C)[C@H]1CC[C@@](O)(COC(=O)/C(=C/[C@H]2C3=C(CC[C@@H]2C(C)C)COC3=O)CO)[C@@H](C(=O)O)[C@@H]1/C=C(\CO)C(=O)O Non-Toxic

====

test system: SW-620; experiment: Cytotoxicity against human SW620 cells assessed as reduction in cell viability upto 30 uM incubated for 48 hrs by MTT assay; format: cell-based; conditions: sw-620, 48 h
property-name: Activity

Reference set, count: 6
CC(C)[C@H]1CC[C@@]2(OC(=O)/C(=C/[C@H]3C4=C(CC[C@@H]3C(C)C)COC4=O)CO)COC(=O)[C@H]2[C@@H]1/C=C(\CO)C(=O)O Non-Toxic
CC(C)[C@H]1CC[C@@]2(OC(=O)/C(=C/[C@H]3C=C(CO)CC[C@@H]3C(C)C)CO)COC(=O)[C@H]2[C@@H]1/C=C(\CO)C(=O)O Non-Toxic
CC(C)[C@H]1CC[C@@](O)(COC(=O)/C(=C/[C@@H]2[C@@H](C(C)C)CC[C@@]3(O)COC(=O)[C@@H]23)CO)[C@@H](C(=O)O)[C@@H]1/C=C(\CO)C(=O)O[C@@]12CC[C@H](C(C)C)[C@@H](/C=C(\CO)C(=O)O)[C@@H]1C(=O)OC2 Non-Toxic
CC(C)[C@H]1CC[C@@](O)(COC(=O)C2=C[C@@H]3[C@@H](C(C)C)CC[C@@](O)(COC(=O)/C(=C/[C@H]4C5=C(CC[C@@H]4C(C)C)COC5=O)CO)[C@H]3C(=O)OC2)[C@H]2C(=O)OCC(C(=O)O)=C[C@H]12 Non-Toxic
CC(C)[C@H]1CC[C@@](O)(COC(=O)C2=C[C@H]3[C@@H](OC2)[C@H](CO)CC[C@@H]3C(C)C)[C@H]2C(=O)OCC(C(=O)O)=C[C@H]12 Non-Toxic
CC(C)[C@H]1CC[C@@](O)(COC(=O)/C(=C/[C@H]2C=C(CO)CC[C@@H]2C(C)C)CO)[C@H]2C(=O)OCC(C(=O)O[C@@]34CC[C@H](C(C)C)[C@@H](/C=C(\CO)C(=O)O)[C@@H]3C(=O)OC4)=C[C@H]12 Non-Toxic

Record summary for CC(C)[C@H]1CC[C@@](O)(COC(=O)/C(=C/[C@@H]2[C@@H](C(C)C)CC[C@@]3(OC(=O)/C(=C/[C@H]4C=C(CO)CC[C@@H]4C(C)C)CO)COC(=O)[C@@H]23)CO)[C@H]2C(=O)OCC(C(=O)O)=C[C@H]12 : reported Activity = Non-Toxic

For CC(C)[C@H]1CC[C@@](O)(COC(=O)/C(=C/[C@H]2C=C(CO)CC[C@@H]2C(C)C)CO)[C@H]2C(=O)OCC(C(=O)O)=C[C@H]12 the compound record lists Activity as Non-Toxic

// Activity lookup, compound = CC(C)[C@H]1CC[C@@](O)(COC(=O)/C(=C/[C@@H]2[C@@H](C(C)C)CC[C@@](O)(COC(=O)/C(=C/[C@H]3C4=C(CC[C@@H]3C(C)C)COC4=O)CO)[C@H]2C(=O)O)CO)[C@H]2C(=O)OCC(C(=O)O)=C[C@H]12 , result: Non-Toxic
